Source: ChEMBL document CHEMBL1201862

- Test system: HCT-15
- assay.overview: NCI tumour cell line growth inhibition, 48 h
Where a SMILES comes first, the peptide text is derived from it. Square brackets hold non-standard residues; d marks the D form. Peptide text beside a SMILES is read from it. The star is where a group is joined. * marks the point of attachment. Boc = CC(C)(C)OC(=O)*; OBn = c1ccc(CO*)cc1
Overview of recorded GI50 for various compounds
measured.attribute: GI50 (µM)

INSERT INTO assay_data (compound, measured_attribute, output_unit, modifier, test_value) VALUES
  ('C[Si](C)(C)C(CCCCSc1ccccc1)(Sc1ccccc1)Sc1ccccc1', 'GI50', 'µM', '>', 100),
  ('COC(OC)[C@@H]1OC[C@@H](O)[C@@H]1n1cnc2c(N)ncnc21', 'GI50', 'µM', '>', 100),
  ('COc1ccccc1/N=N/C(C(=O)c1ccccc1)C(=O)c1ccccc1', 'GI50', 'µM', '=', 14.9),
  ('C[C@H](CC[C@@H](O)C(C)(C)O)[C@H]1CC[C@@]2(C)[C@@H]3CC=C4[C@@H](CC[C@H](O)C4(C)C)[C@]3(C)C(=O)C[C@]12C', 'GI50', 'µM', '=', 19.2),
  ('Nc1c2ccccc2nc2c1ccc1ncccc12', 'GI50', 'µM', '=', 14.2),
  ('O=C1CN(c2ccc(Cl)cc2)C(=O)CN1CCN1CC(=O)N(c2ccc(Cl)cc2)CC1=O', 'GI50', 'µM', '>', 100),
  ('O=[N+]([O-])c1ccc(SN=S=NSc2cccc(SN=S=NSc3ccc([N+](=O)[O-])cc3)c2)cc1', 'GI50', 'µM', '=', 17.7),
  ('CCC1C(c2ccccc2O)c2cc3c(cc2OC1N1CCOCC1)OCO3 (configuration not stated)', 'GI50', 'µM', '=', 9.4),
  ('CC1=C(C#N)C(=O)N(/N=C/c2ccc(Cl)cc2)C(=O)/C1=c1\o/c(=C2/C(=O)N(/N=C/c3ccc(Cl)cc3)C(=O)C(C#N)=C2C)c2nccnc12', 'GI50', 'µM', '=', 82),
  ('Cn1ccc(C(=O)NCCN(CCNC(=O)c2ccn(C)c(=O)c2O)CCNC(=O)c2cccc(=O)n2O)c(O)c1=O', 'GI50', 'µM', '>', 100),
  ('CSC(=N)NNC(=O)CCC(=O)Nc1ccccc1C(F)(F)F', 'GI50', 'µM', '>', 100),
  ('CC(C)(C)OC(=O)[C@@H]1ON2O[C@H](OC3CCCC3(c3ccccc3)c3ccccc3)C[C@H]3OC(=O)[C@@H]1[C@H]32 (some centres not stated)', 'GI50', 'µM', '=', 31.8),
  ('CCCn1c(C23CC4CC(CC(C4)C2)C3)nc2ccc(Cl)cc2c1=O', 'GI50', 'µM', '=', 45.6),
  ('S=C(N/N=C(\C(=N/NC(=S)N1CCCCC1)c1ccccn1)c1ccccn1)N1CCCCC1', 'GI50', 'µM', '=', 6.87),
  ('O=C1/C(=C/c2ccc(O)c(O)c2)CCC/C1=C\c1ccc(O)c(O)c1', 'GI50', 'µM', '=', 4.13),
  ('CC(C)[C@H](NC(=O)[C@@H](O)[C@H](N)Cc1ccccc1)C(=O)N[C@@H](Cc1ccccc1)C(=O)O', 'GI50', 'µM', '>', 100),
  ('CC(NC(=O)C(NC(=O)OC(C)(C)C)C(C)C)C(=O)NCC(=O)O (stereo not drawn) (Boc-Val-Ala-Gly-OH; configuration not given here)', 'GI50', 'µM', '>', 100),
  ('CC1(C)CC(=O)C2=C(C1)C(c1ccccc1Cl)C1C(=O)CC(C)(C)CC1(O)O2 (configuration not stated)', 'GI50', 'µM', '=', 42.5),
  ('C=C[C@@]1(C)CC(=O)[C@]2(O)[C@@]3(C)[C@@H](OC(C)=O)CCC(C)(C)[C@@H]3[C@H](OC(C)=O)[C@H](OC(C)=O)[C@@]2(C)O1', 'GI50', 'µM', '>', 100),
  ('C[C@@H](NC(=O)CNC(=O)OC(C)(C)C)C(=O)N[C@@H](Cc1ccccc1)C(=O)OCc1ccccc1 (Boc-Gly-[dA]-Phe-OBn)', 'GI50', 'µM', '>', 100),
  ('Cc1ccc(NC(=S)SCCC(=O)O)cc1', 'GI50', 'µM', '>', 100),
  ('Cc1cccc(Cl)c1NC(=O)c1cccc([N+](=O)[O-])c1O', 'GI50', 'µM', '=', 35.6),
  ('COC(OC)C1OC(CO)C(n2ccc(N)nc2=O)C1O (configuration not stated)', 'GI50', 'µM', '>', 100),
  ('O=C(NCCC1([N+](=O)[O-])CCN(C(=O)c2ccccc2)CC1)c1ccccc1', 'GI50', 'µM', '>', 100),
  ('COc1ccc(-c2nc(N)nc(-c3cc(C)ccc3O)c2Cl)cc1', 'GI50', 'µM', '>', 100),
  ('CC(OC(=O)C(CC(=O)OC(C)(C)C)NC(=O)OC(C)(C)C)C(=O)OCc1ccccc1 (configuration not stated)', 'GI50', 'µM', '>', 100),
  ('O=c1oc(-c2ccc(O)cc2)cc2cc(O)ccc12', 'GI50', 'µM', '=', 43.2),
  ('O=C1OC(c2cccc(C(F)(F)F)c2)c2ccc3ccccc3c21 (configuration not stated)', 'GI50', 'µM', '=', 8.22),
  ('Cc1cc(C)nc(NS(=O)(=O)c2ccc(NC(=O)c3c4ccccc4nc4ccccc34)cc2)n1', 'GI50', 'µM', '=', 65.9),
  ('Cn1c2c([N+](=O)[O-])cccc2c(=O)c2c(O)cc3c(c21)C=CC(C)(C)O3', 'GI50', 'µM', '=', 20.7),
  ('[N-]=[N+]=Nc1ccc(CCN2CCN(c3cccc(C(F)(F)F)c3)CC2)cc1I', 'GI50', 'µM', '=', 25.2),
  ('CO/C(=N\N=C\c1ccc(OC)cc1OC)c1ccncc1', 'GI50', 'µM', '>', 10);
